Hey, just so you know, these numbers are from patent US9730944B2.

Experiment: in vitro
Details: human
ENDPOINT: log10 CC50 (log10 of the value in µM)
# values: log10(CC50), units µM

Answered examples (2):
COMPOUND: Cc1cccc(OCC(=O)N2CCN(c3nc(N)nc4sc(CCc5ccc(F)cc5)nc34)CC2)c1
log10 CC50: 2.30
//
COMPOUND: Cc1cccc(NC(=O)N2CCN(c3nc(N)nc4sc(Cc5ccc(F)cc5)nc34)CC2)c1
log10 CC50: 1.00

Now turn to the next compound.
The recorded log10 CC50 for `Nc1nc(N2CCN(C(=O)OCc3ccccc3)CC2)c2nc(-c3ccc(F)cc3)sc2n1` is 2.38
